- Tested on: MS2 coat protein
- Assay Method Text: apparent KD of MS2 coat protein; designed switch direction (-1 OFF switch, 1 ON switch): -1; higher = weaker reporter binding
- Conditions Used: Eterna round: R95; input ligand: microRNA oligo, concentration not stated
Property: apparent KD of MS2 coat protein (µM)
Please give a number only; it is taken to be in µM.

Record excerpt, results attached:
# Sequence Record, Property, Observed Value
records = [
    ("UUAUACGUUGAGGAUAUGUUAUUUAGUAUAGUUACAGAAGGCGAUACAUGAGGAUCACCCAUGUUUAUGGGCAU [Ex-6 Malc#1] (puzzle: Exclusion 6)", "apparent KD of MS2 coat protein", 0.196),
    ("UGGCUGCUCAGGGAGUGUGACAUGAGGAUCACCCAUGUGGUAGUAAGGAACAAGCUUUUUGCACGUACUUAUGGGUC [JR_SV3TOV1_Sub010] (puzzle: Sensor v3, turn-off variant 1)", "apparent KD of MS2 coat protein", 0.204),
    ("CAUGAUCUUCGGAUCAUGUACAUGAGGAUCACCCAUGUGACGAGUAUAUCCUCAAACAAGCUUUUUGCUCGUCUUAU [Sensor v3 - Turn-off variant 1 - 22] (puzzle: Sensor v3, turn-off variant 1)", "apparent KD of MS2 coat protein", 0.417),
]

Problem: What apparent KD of MS2 coat protein value was documented for this sequence, CUGGUCCGAGGAUAUAUUAAGUGAAACAUGAGGAUCACCCAUGUAAUUUGAUGGAUGUAAAUAGAAGGCGGACUAG [JL-ex5-3.09] (puzzle: Exclusion 5) ?
Result: 0.0371

Problem: And UUUUUUGUUGUGAGGAUAUCGUUGUGGAUGUGGAUCGAGAAGGCACAUGAGGAUCACCCAUGUUUGUUGUGGUU [JR_BMOE4_Sub085] (puzzle: Brourd's mod of Exclusion 4) ?
Result: 0.0867

* * *

- Tested on: K4 kissing-loop RNA reporter;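 further: bound reporter read as fluorescence of individual clusters on recovered sequencing chips by microscopy, with normalized cluster intensities fitted with a binding model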
- Assay Method Text: apparent KD of K4 kissing-loop reporter; higher = weaker reporter binding
- Conditions Used: Eterna round: R107; input ligand: theophylline 20 uM
Binary classification by apparent KD of K4 kissing-loop reporter, with 100 nM as an inclusive lower bound for satisfied; all other cases are not satisfied.

# example entries with known answers
# Sequence Record, Assigned Class
records = [
    ("AAUGUACAGGGAAGGAGCGCCGUCCAGUGAUGUUGGAGUUAAAUACCAGUGAUGUUGGUUAGGCAGGUAGGUCGCCCUAUAGUAU [#07 K4 Arginine B Exclusion]", "satisfied"),
    ("GGUUAGUGAUGUUGAUCAAAUCGCGGUGAUACCAGCAACACAUCGUGCCCUUGGCAGCACGGCAAAAUGAAUGCGGUCGAAUGCG [theeternabot_exclusion_KL_Theo_A_19]", "satisfied"),
    ("GGUGUGCCAGUGAUGUUGGCAUAAACUGAAGGAGCGCGUGAAAACGCAGGUAGGUCGCAGAACCUUGCCAACUAUUUUAUUCACC [Ex Arginine A K4 25]", "satisfied"),
    ("AAUAACUAGUAUAUUUUUAAUAAUACAGAUACCAGUGAUAAUAAACACCCUUGGCAGCUGAUCGAGUGAUGUUCGUUUAUUUUAA [JR_SSTheophyA_Sub002]", "satisfied"),
    ("GCCGUACGCAUGGAUACCAGCAGAACUGCCCUCCCAGUGAUGUUGGGAGGAUCUUUCCUUUGCCCUUGGCAGCCAUGCGUACGGC", "not satisfied"),
]

Problem: Say whether `GGUAGCAUGAUGGAUACCAGUCCAAAUGGAGUGAUGUUCCAACAACAGGUUAGGCUGCUGGACCCUUGGCAGCCGUCAUGCUACC` shows apparent KD of K4 kissing-loop reporter of 100 nM or more.
Result: satisfied
